# Procedure details: in vivo
# Run parameters: female, Sprague Dawley, rat, iv, 5 mg/kg

Molecule | Tmax
O=C(O)c1cc(-c2ccc(/C=C3\SC(=S)N(CCc4ccccc4)C3=O)o2)ccc1Cl [NBCoV1] | 0.25 h
O=C(O)c1cccc(-c2ccc(/C=C3\SC(=S)N(CCc4ccccc4)C3=O)o2)c1 [NBCoV2] | 2 h

----------
# Procedure details: in vivo
# Run parameters: female, Sprague Dawley, rat, iv, 5 mg/kg, MRT0-inf_obs
Value type: MRT inf (h)

Molecule | Units symbol | Experimental value
O=C(O)c1cc(-c2ccc(/C=C3\SC(=S)N(CCc4ccccc4)C3=O)o2)ccc1Cl | h | 4.02
O=C(O)c1cccc(-c2ccc(/C=C3\SC(=S)N(CCc4ccccc4)C3=O)o2)c1 | h | 5.09

----------
# Assayed target: UniProt:P10635
# Sequence (P10635 whole entry): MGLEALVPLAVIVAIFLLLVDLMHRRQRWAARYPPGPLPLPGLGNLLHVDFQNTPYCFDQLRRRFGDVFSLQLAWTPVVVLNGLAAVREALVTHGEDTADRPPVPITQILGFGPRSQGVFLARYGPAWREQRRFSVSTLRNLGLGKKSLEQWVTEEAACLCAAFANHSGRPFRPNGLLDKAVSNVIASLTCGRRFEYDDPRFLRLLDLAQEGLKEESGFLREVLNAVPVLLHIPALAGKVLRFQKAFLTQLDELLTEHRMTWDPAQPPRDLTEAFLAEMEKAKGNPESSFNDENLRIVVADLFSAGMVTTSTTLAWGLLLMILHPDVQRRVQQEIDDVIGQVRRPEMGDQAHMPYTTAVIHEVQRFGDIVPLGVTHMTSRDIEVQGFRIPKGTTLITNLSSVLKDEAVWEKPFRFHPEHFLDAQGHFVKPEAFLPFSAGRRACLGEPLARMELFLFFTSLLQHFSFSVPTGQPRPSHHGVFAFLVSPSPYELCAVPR
# Procedure details: in vitro
# Run parameters: microsomes, pH 7.4

Molecule | Assayed target | activity at 0.0412 µM / %
O=C(O)c1cc(-c2ccc(/C=C3\SC(=S)N(CCc4ccccc4)C3=O)o2)ccc1Cl | UniProt:P10635 | 98.7

----------
# Assayed target: β-lactamase
Value type: IC50

Compound | Experimental value
O=C1NC(=S)S/C1=C\c1ccc(-c2ccc(C(=O)O)cc2)o1 [NBCoV34] | > 2000 nM
O=C(O)c1cc(-c2ccc(/C=C3\SC(=S)N(CCc4ccccc4)C3=O)o2)ccc1Cl [NBCoV1] | > 2000 nM
Cc1c(C(=O)O)cccc1-c1ccc(/C=C2\SC(=S)N(CCc3ccccc3)C2=O)o1 [NBCoV5] | > 2000 nM
Cc1ccc(-c2ccc(/C=C3\SC(=S)N(CCc4ccccc4)C3=O)o2)cc1C(=O)O [NBCoV4] | > 2000 nM
O=C(O)c1cc(-c2ccc(/C=C3\SC(=S)N(CCc4ccccc4)C3=O)o2)ccc1F [NBCoV3] | > 2000 nM
O=C(O)c1cccc(-c2ccc(/C=C3\SC(=S)N(CCc4ccccc4)C3=O)o2)c1 [NBCoV2] | > 2000 nM

----------
# Assayed target: CYP2B6 (Homo sapiens, UniProt P20813)
# Sequence (P20813 whole entry): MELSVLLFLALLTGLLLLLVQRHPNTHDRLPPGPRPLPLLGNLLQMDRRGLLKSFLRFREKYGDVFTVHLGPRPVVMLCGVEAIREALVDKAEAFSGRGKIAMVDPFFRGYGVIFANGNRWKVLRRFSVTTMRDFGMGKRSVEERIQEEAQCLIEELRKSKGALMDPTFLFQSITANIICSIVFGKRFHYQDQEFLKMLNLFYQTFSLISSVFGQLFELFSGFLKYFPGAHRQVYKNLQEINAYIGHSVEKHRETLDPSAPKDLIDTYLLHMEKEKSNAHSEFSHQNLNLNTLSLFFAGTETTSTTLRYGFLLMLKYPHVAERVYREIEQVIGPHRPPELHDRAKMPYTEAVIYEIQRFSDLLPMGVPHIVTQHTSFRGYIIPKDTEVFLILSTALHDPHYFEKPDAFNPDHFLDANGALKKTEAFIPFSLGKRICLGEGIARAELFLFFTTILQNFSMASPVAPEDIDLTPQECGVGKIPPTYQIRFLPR
# Procedure details: in vitro
# Run parameters: microsomes, pH 7.4
Value type: activity at 0.0412 µM (%)

Molecule | Experimental value
O=C(O)c1cc(-c2ccc(/C=C3\SC(=S)N(CCc4ccccc4)C3=O)o2)ccc1Cl | 98.1

----------
# Assayed target: CYP1A2 (Homo sapiens)
# Sequence (P05177 whole entry): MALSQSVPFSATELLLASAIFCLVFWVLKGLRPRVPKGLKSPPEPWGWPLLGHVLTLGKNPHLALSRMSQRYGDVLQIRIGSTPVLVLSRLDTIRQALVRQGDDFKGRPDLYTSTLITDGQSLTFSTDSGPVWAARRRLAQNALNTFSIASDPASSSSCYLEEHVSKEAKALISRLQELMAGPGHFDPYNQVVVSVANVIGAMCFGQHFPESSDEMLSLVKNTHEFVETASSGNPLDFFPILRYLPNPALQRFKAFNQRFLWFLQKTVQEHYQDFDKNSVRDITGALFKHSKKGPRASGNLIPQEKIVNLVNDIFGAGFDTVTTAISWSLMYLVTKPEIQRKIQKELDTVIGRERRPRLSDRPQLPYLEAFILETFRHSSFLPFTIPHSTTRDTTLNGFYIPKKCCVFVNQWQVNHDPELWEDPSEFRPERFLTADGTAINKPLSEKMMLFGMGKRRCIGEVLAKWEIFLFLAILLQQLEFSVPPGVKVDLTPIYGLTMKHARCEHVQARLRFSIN
# Procedure details: in vitro
# Run parameters: microsomes, pH 7.4
Value type: activity at 0.0137 µM (%)

Molecule | Assayed target | Value type | Units symbol | Experimental value
O=C(O)c1cc(-c2ccc(/C=C3\SC(=S)N(CCc4ccccc4)C3=O)o2)ccc1Cl | CYP1A2 (Homo sapiens) | activity at 0.0137 µM | % | 99.2

----------
# Assayed target: CYP2C19 (Homo sapiens, UniProt P33261)
# Sequence (P33261 whole entry): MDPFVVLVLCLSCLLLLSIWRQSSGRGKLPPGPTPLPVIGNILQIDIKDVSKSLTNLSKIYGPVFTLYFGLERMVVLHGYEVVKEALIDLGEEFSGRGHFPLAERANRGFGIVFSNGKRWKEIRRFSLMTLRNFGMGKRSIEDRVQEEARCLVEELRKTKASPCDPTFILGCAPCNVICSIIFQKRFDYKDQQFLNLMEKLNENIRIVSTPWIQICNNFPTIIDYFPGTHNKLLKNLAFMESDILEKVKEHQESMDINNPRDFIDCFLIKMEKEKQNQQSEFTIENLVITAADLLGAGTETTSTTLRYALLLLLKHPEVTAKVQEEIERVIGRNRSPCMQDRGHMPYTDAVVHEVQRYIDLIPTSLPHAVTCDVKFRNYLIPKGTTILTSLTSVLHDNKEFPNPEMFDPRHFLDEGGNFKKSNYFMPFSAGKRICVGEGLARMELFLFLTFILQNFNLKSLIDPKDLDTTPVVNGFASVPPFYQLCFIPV
# Procedure details: in vitro
# Run parameters: microsomes, pH 7.4

Molecule | activity at 1.11 µM (%)
O=C(O)c1cc(-c2ccc(/C=C3\SC(=S)N(CCc4ccccc4)C3=O)o2)ccc1Cl | 92

----------
# Procedure details: in vitro
# Run parameters: both, human, plasma, % Bound, single replicates (R1, R2)
Value type: fraction unbound

Molecule | Experimental value
O=C(O)c1cc(-c2ccc(/C=C3\SC(=S)N(CCc4ccccc4)C3=O)o2)ccc1Cl | < 0.005
